The following molecules are listed with their measured inhibition at 0.03 µM values.
# measurement target: CDK4/cyclin D3 (Homo sapiens, UniProt P11802)
# Construct: made in house; host or cells: insect cells (baculovirus co-infection)
# Sequence (P11802 whole entry): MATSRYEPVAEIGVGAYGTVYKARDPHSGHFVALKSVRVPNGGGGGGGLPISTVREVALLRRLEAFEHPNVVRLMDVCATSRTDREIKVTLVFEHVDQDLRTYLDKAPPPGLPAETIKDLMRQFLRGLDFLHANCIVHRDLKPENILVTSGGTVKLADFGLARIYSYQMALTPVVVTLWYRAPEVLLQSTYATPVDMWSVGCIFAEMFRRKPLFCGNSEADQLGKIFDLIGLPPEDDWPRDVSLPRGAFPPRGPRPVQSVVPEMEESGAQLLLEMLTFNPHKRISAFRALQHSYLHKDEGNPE
# Sequence (P30281 1-264 partner limits assumed): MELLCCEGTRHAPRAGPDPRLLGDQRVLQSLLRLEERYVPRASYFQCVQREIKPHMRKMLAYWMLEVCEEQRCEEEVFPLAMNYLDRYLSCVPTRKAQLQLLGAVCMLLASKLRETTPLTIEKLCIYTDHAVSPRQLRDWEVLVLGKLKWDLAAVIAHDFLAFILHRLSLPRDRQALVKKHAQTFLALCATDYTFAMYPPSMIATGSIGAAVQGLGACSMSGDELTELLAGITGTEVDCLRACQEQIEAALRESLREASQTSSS
# experiment notes: Inhibition of CDK4/Cyclin D retinoblastoma kinase activity
# Assay type: biochemical
# reported conditions: test compound at 0.03 (unit cell empty, head line shifted; μM); read-out: % Inhib CDK4/D @ 0.03
The reply should be a number in %, with the unit left off.

Entry CC(C)CCOC(=O)C[S+]([O-])c1ccc(Nc2nc(N)c(C(=O)c3c(Cl)cccc3Cl)s2)cc1 (centres unmarked) — recorded inhibition at 0.03 µM = -1.7
